Origin of the recorded values: PubChem BioAssay AID1645859

- target.or.system: Ubiquitin carboxyl-terminal hydrolase isozyme L1 (Homo sapiens) (UniProt P09936)
- Sequence (P09936 whole entry, looked up): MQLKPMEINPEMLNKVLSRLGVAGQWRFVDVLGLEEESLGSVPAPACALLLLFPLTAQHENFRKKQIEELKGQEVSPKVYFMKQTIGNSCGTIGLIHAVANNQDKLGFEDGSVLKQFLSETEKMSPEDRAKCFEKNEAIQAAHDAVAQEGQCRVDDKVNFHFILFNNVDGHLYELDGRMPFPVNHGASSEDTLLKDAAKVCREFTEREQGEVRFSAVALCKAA
- procedure.text: blocks human UCHL1 ubiquitin-rhodamine cleavage (AID 1645859)
- experimental.conditions: purified UCHL1, Ub-rhodamine cleavage fluorescence; at 20 µM; hits give high values
Among all 47,000 compounds or so, about 95 (0.2%) were called active. The sample holds actives, similar compounds and a random draw of the others, so the mix is not that of the screen.
result.type: inhibition (%)
Numbers only, in %.

Cn1cccc1/C(C#N)=C\c1ccc2c(c1)OCO2    12.5
COc1ccc(-n2ncc3c2NC(=O)CC32C(=O)N(CC(C)C)c3ccc(F)cc32)cc1 (centres undefined)    3.31
c1ccc2c(c1)NCCC(c1ccc3c(c1)OCO3)N2 (centres undefined)    -0.387

Note: attention shifts to another entry.
# query: inhibition of entry O=S(=O)(NC12CC3CC(CC(C3)C1)C2)c1ccc(S(=O)(=O)N2CCCCC2)cc1 -1.48

###

- target.or.system: Ubiquitin carboxyl-terminal hydrolase isozyme L1 (Homo sapiens) (UniProt P09936)
- procedure.text: blocks human UCHL1 ubiquitin-rhodamine cleavage (AID 1645859)
- experimental.conditions: purified UCHL1, Ub-rhodamine cleavage fluorescence; at 20 µM; hits give high values
Screen size: about 47,000 compounds; about 95 (0.2%) were called active. This is one part of a sample in which actives are shown more often than they occur.
Task for the reader: assign each of the following compounds its reported inhibition.
Answers are plain numbers, in %.

COc1ccc(OC)c(NC(=O)[C@H]2C[C@H](C)N[C@]23C(=O)Nc2c(Cl)cc(C)cc23)c1    -6.13
Cc1ccccc1CN1C(=O)N(c2cccc(F)c2)c2ncccc2S1(=O)=O    3.52
Cc1ccc(C(=O)N2CCN3Cc4ccccc4N(C)CC3C2)cc1 (stereo unspecified)    -155
CC(=O)c1ccc(S(=O)(=O)Nc2cccc(-c3nc4cccnc4s3)c2C)cc1    0.0973

Batch lookup, inhibition per entry.
1. CCc1cccc(NS(=O)(=O)c2ccc3c(c2)C(C)(C)C(=O)N3)c1
2. CCc1nc(SCC(=O)Nc2cccc(OC)c2)c2c(=O)n(C)c(=O)n(C)c2n1
3. Cc1cc(-c2cncnc2-c2ccc(CNC(=O)Cc3cc(F)ccc3F)cc2)on1

4.05
-0.222
2.52

Batch lookup, inhibition per entry.
1. COCCNC(=O)c1cc(-c2ccn(C3CCCC3)n2)n2ccccc12
2. Cc1nc(-c2csc(S(=O)(=O)NC3CC3)c2)no1
3. CCN1CCN(c2ccc(-c3nc(-c4cccc(F)c4)no3)cn2)CC1
4. CC(C)[C@H](NC(=O)[C@@H]1Cc2c([nH]c3ccccc23)C2c3ccccc3C(=O)N21)C(=O)NCCc1ccccc1 (stereo partly specified)

1. -0.227
2. -2.36
3. -1.45
4. 0.101

###

- target.or.system: Ubiquitin carboxyl-terminal hydrolase isozyme L1 (Homo sapiens)
- procedure.text: blocks human UCHL1 ubiquitin-rhodamine cleavage (AID 1645859)
- experimental.conditions: purified UCHL1, Ub-rhodamine cleavage fluorescence; at 20 µM; hits give high values
Screen size: about 47,000 compounds; about 95 (0.2%) were called active. The sample holds actives, similar compounds and a random draw of the others, so the mix is not that of the screen.
result.type: inhibition

Cc1cc(-c2noc(-c3cc4ccccc4oc3=O)n2)c2ccccc2n1    -0.979% (inactive)
COc1cc(C2CC(=O)Nc3cc4c(cc32)OCO4)ccc1O (stereo not given)    -1.12% (inactive)
CC(=O)OC(C)[C@]12C=C(C)[C@H]3[C@H](C)[C@@H](O[C@H]4CC[C@@H](O)[C@@H](C)O4)C4=CC(=O)C=C(N1C(=O)[C@@](C)(O)C2=O)[C@]43O (stereo not given in full)    -4.12% (inactive)
CC1(C)Cc2c(c(-c3ccco3)nc3sc4c(SCCCc5ccccc5)ncnc4c23)CO1    56.3% (active)
COCC(=O)N1CCCC2(COCCN(CCN(C)C)C2)C1 (stereo not given)    0.844% (inactive)

Batch lookup, inhibition per entry.
1. Cn1cc(N2CCC3(CCN(C(=O)c4ccc(F)cc4)CC3)C2=O)cn1
2. CC(C)Cc1cc(-c2nn3c(-c4ccccc4Cl)nnc3s2)n[nH]1
3. COc1cccc(C(=O)NC2CC(=O)N(c3ccc(F)cc3)C2)c1OC (stereo not given)
4. Cc1cccc(-c2nccnc2C2CCCN(C(=O)c3cnccn3)C2)c1 (stereo not given)
5. Cc1c(-c2nn3c(-c4ccco4)nnc3s2)cccc1[N+](=O)[O-]

1. 0.646% (inactive)
2. 5.44% (inactive)
3. 0.016% (inactive)
4. 5.49% (inactive)
5. 61.3% (active)

Batch lookup, inhibition per entry.
1. O=C(Cn1cnc(S(=O)(=O)N2CCc3ccccc32)c1)Nc1ccc2c(c1)OCO2
2. Cc1nn(CCC(=O)Nc2ccccc2F)c(C)c1S(=O)(=O)N1CCOCC1
3. O=C(N[C@@H]1CN(Cc2nccs2)[C@@H]2COC[C@@H]21)C1CCC1
4. COCCn1ccc2nc(C)c(C(=O)N3CCN(c4cc(C)ccc4C)CC3)cc2c1=O
5. Cc1ccc(C(=O)N2CCc3cc(-c4csc(NC(=O)CNc5ccccc5)n4)ccc32)cc1

1: -7.24% (inactive); 2: -2.99% (inactive); 3: -3.31% (inactive); 4: 1.94% (inactive); 5: -0.728% (inactive)

###

Task for the reader: assign each of the following molecules its reported inhibition.
- target.or.system: Ubiquitin carboxyl-terminal hydrolase isozyme L1 (Homo sapiens) (UniProt P09936)
- procedure.text: blocks human UCHL1 ubiquitin-rhodamine cleavage (AID 1645859)
- experimental.conditions: purified UCHL1, Ub-rhodamine cleavage fluorescence; at 20 µM; hits give high values
The whole screen tested about 47,000 compounds, of which about 95 (0.2%) were called active. Only a selection was taken, and actives are over-represented in it overall.
Numbers only, in %.

Batch lookup, inhibition per entry.
1. O=C(Cc1ccccc1Cl)Nc1ccc(N2CCOCC2)cc1
2. O=C1CN2CC(c3ccccc3S2(=O)=O)N1Cc1ccccc1 (stereo not given)
3. O=C(Cn1cnc(S(=O)(=O)N2CCOCC2)c1)Nc1cccc(Cl)c1
4. COc1ccc(NC(=O)CN(C)C(=O)c2ccc3c(c2)nnn3C)cc1
5. O=C(C1CCCN(c2cnc3nccnc3c2)C1)N1CCCCCC1 (stereo not given)

1. 2.8
2. -1.24
3. 2.46
4. 2.41
5. -42.4
